- System: third instar T. ni larvae
- PROTOCOL NOTES: Leaf disk choice feeding deterrence bioassay
- Assay type: in vivo, Trichoplusia ni
- CONDITION PARAMETERS: Trichoplusia, foliar, Table 5, 1,2-dialkoxybenzenes; feeding deterrence at 50 μg/cm^2; read-out: FD (%), mean ± SE (n = 25)
Quick rule for you: pest or weed control at 50 µg/cm2, 50 µg/cm2 at 30% or higher means rule met, lower means rule not met.

Examples with answers:
CCCOc1ccccc1OCCC | rule not met
CCCCOc1ccccc1O | rule not met
CCCCOc1ccccc1OCCCC | rule met
COc1ccccc1O [1-hydroxy-2-methoxybenzene] | rule not met
CCOc1ccccc1OCC | rule not met

Ask: pest or weed control at 50 µg/cm2, 50 µg/cm2 >= 30% for CCOc1ccccc1O ?
Result: rule not met

Ask: Input C=CCOc1ccccc1O
Result: rule met
